System: 292921-168-R tumor spheroid viability
EXPERIMENT NOTES: Anticancer human tumor 292921-168-R patient-derived pancreatic carcinoma cell line growth inhibition
CONDITION DESCRIPTION: curve of first compound; second compound 3.16 µM; spheroids with HUVEC and MSC
EXPERIMENTAL ENDPOINT: pIC50
pIC50 here is simply -log10 of the concentration when that concentration is written in mol/L.

>  <COMPOUND>
COc1ccc([C@@H](O)c2cc(-c3ncnc4cc(N5CCOCC5)ccc34)c(F)cc2Cl)nn1 + Cn1nnc2c(C(N)=O)ncn2c1=O

>  <pIC50>
5.83

$$$$
>  <COMPOUND>
CC(C)n1c(=O)n(C)c2cnc3cc(F)c(-c4ccc(OCCCN5CCCCC5)nc4)cc3c21 + Cn1nnc2c(C(N)=O)ncn2c1=O

>  <pIC50>
5.27

$$$$

Now examine the next entry.
input: Fill in the blank: the reported pIC50 of O=C(c1cc(Cc2n[nH]c(=O)c3ccccc23)ccc1F)N1CCN(C(=O)C2CC2)CC1 + Cn1nnc2c(C(N)=O)ncn2c1=O is ____.
output: 4.75

====

System: 292921-168-R tumor spheroid viability
EXPERIMENT NOTES: Anticancer human tumor 292921-168-R cell line growth inhibition;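 note: spheroids exposed to compounds for 7 days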
CONDITION DESCRIPTION: second compound 10 µM; first compound 0.316 µM; stronger effect = lower value; spheroids with HUVEC and MSC
EXPERIMENTAL ENDPOINT: viability, T/C

>  <COMPOUND>
COc1cc(C)[nH]c(=O)c1CN1CCc2c(Cl)cc(C(OC)C3COC3)c(Cl)c2C1=O (stereo unspecified) + Cn1nnc2c(C(N)=O)ncn2c1=O

>  <EXPERIMENTAL SYSTEM>
292921-168-R tumor spheroid viability

>  <EXPERIMENTAL ENDPOINT>
viability, T/C

>  <RESULT VALUE>
98%

$$$$

input: Lab request: please report viability, T/C under test system 292921-168-R tumor spheroid viability for Cc1cc(C)c(CNC(=O)c2cc(-c3ccc(CN4CCOCC4)cc3)cc3c2cnn3C2CCCC2)c(=O)[nH]1 + Cn1nnc2c(C(N)=O)ncn2c1=O
output: 96%

input: Again, but for CC(C)n1c(=O)n(C)c2cnc3cc(F)c(-c4ccc(OCCCN5CCCCC5)nc4)cc3c21 + Cn1nnc2c(C(N)=O)ncn2c1=O
output: 89.5%

input: Again, but for CC1COCCN1c1cc(-c2ccnn2C)c2ccnc(-c3ccn[nH]3)c2n1 (stereo unspecified) + Cn1nnc2c(C(N)=O)ncn2c1=O
output: 12.1%

input: Again, but for COc1ccc([C@@H](O)c2cc(-c3ncnc4cc(N5CCOCC5)ccc34)c(F)cc2Cl)nn1 + Cn1nnc2c(C(N)=O)ncn2c1=O
output: 84.9%

input: Again, but for [2H]c1nc(C)nc([2H])c1-c1cc(NC[C@@H](C)c2cccc3c(C(=O)NC)ccnc23)ncn1 + Cn1nnc2c(C(N)=O)ncn2c1=O
output: 87.3%

====

Test system: 292921-168-R tumor spheroid viability
EXPERIMENT NOTES: Anticancer human tumor 292921-168-R cell line growth inhibition;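 note: spheroids exposed to compounds for 7 days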
CONDITION DESCRIPTION: second compound 3.16 µM; first compound 3 µM; stronger effect = lower value; spheroids with HUVEC and MSC
EXPERIMENTAL ENDPOINT: viability, T/C

Example compounds with recorded viability, T/C:
>  <COMPOUND>
Cn1ncnc1[C@H]1c2n[nH]c(=O)c3cc(F)cc(c23)N[C@@H]1c1ccc(F)cc1 + Cn1nnc2c(C(N)=O)ncn2c1=O

>  <RESULT VALUE>
11.1%

$$$$
>  <COMPOUND>
Cc1sc2c(c1C)C(c1ccc(Cl)cc1)=NC(CC(=O)Nc1ccc(O)cc1)c1nnc(C)n1-2 (centres undefined) + Cn1nnc2c(C(N)=O)ncn2c1=O

>  <RESULT VALUE>
39.2%

$$$$
>  <COMPOUND>
O=C(c1cc(Cc2n[nH]c(=O)c3ccccc23)ccc1F)N1CCN(C(=O)C2CC2)CC1 + Cn1nnc2c(C(N)=O)ncn2c1=O

>  <RESULT VALUE>
93.6%

$$$$

input: Fill in the blank: the reported viability, T/C of CNCc1ccc(-c2cc(-c3nc(-c4ccc(S(=O)(=O)C(C)C)cc4)cnc3N)on2)cc1 + Cn1nnc2c(C(N)=O)ncn2c1=O is ____.
output: 12%
